Target: T1, extracellular domain of activin receptor type IIB (ActRIIBecd), biotinylated (Homo sapiens (Human), UniProt Q13705 27-117, amino-biotinylated with amine-PEG3-Biotin)
T1 construct: immobilised on a streptavidin-coated sensor chip; also called biotinylated ActRIIBecd; extracellular domain of ActRIIB
T1 sequence: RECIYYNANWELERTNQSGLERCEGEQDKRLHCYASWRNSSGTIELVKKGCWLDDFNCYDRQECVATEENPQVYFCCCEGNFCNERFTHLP
Assay: Mean KD column of Table 5; method not restated (BIAcore as Example 5); species also listed in Table 4
pKd: −log10 of the molar value.

BINDER	pKd
SEQ ID NO: 348, cysteine pairs C15-C15^b, C29-C62^a, C30-C64^a, C88-C92^a (designed binder, disulfides C15-C15 (inter), C29-C62 (intra), C30-C64 (intra), C88-C92 (intra), homodimer by intermolecular disulfide) GQAKRKGYKRLKSSCKRHPLYNSKIPKACCVPTELSAISMLYLDENEKVVLKNYQDMVVEGCGCRVDFSDVGWNDWIVAPPGYHAFYCHGECPFPLADHLNSTNHAIVQTLVNSV	8.29
SEQ ID NO: 348, cysteine pairs C29-C30^a (designed binder, disulfides C29-C30 (intra)) GQAKRKGYKRLKSSCKRHPLYNSKIPKACCVPTELSAISMLYLDENEKVVLKNYQDMVVEGCGCRVDFSDVGWNDWIVAPPGYHAFYCHGECPFPLADHLNSTNHAIVQTLVNSV	7.54
SEQ ID NO: 224, cysteine pairs C15-C44^a (designed binder, disulfides C15-C44 (intra)) GQAKRKGYKRLKSSCKRHPLYVDFKDVGWNDHAVAPPGYHAFYCHGECPFPLADHLNSDNHAIVQTKVNSV	7.31
SEQ ID NO: 340, cysteine pairs C15-C15^b, C29-C62^a, C30-C64^a, C88-C92^a (designed binder, disulfides C15-C15 (inter), C29-C62 (intra), C30-C64 (intra), C88-C92 (intra), homodimer by intermolecular disulfide) AQAKHKQRKRLKSSCKRHPLYNSKDPKACCVPTELSAPSPLYLDENEKPVLKNYQDMVVHGCGCRVDFKDVGWNDHAVAPPGYHAFYCHGECPFPLADHLNSDNHAIVQTKVNSV	8.24
